Kindly state inhibition for each of the entries shown.
Assay: M. tuberculosis growth inhibition, HTS (AID 449762);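 note: bacterial growth assessed after seven days of incubation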
Conditions: M. tuberculosis H37Rv growth inhibition, 7H9 media; at 25 µM; hits give high values
About 1,900 (0.58%) of roughly 330,000 compounds were called active. Inconclusive results (about 4%) are left out. Only a sample is shown. Potency and affinity values are given separately.
Write it as a number; the unit % goes unstated.

Looking for the measured inhibition of `O=C(N/C(=C\c1cccc([N+](=O)[O-])c1)C(=O)N1CCCCC1)c1cccs1` , can you help?
-1.22

Also C/C(=N\NC(=O)C1CC1c1ccccc1)c1ccc(C)s1 (stereo not given) ?
-2.49

Also `Cc1c(S(=O)(=O)Nc2ccc(Br)cc2)c(=O)n(C)c(=O)n1C` ?
1.85

Also `O=C(Nc1cccc2ccccc12)c1ccc([N+](=O)[O-])cc1` ?
5.16

Also `CCOC(=O)c1nn(-c2ccc(F)cc2)c2nc(CC(C)C)c(C#N)c(=O)n12` ?
-13.7
